- Test system: Mycobacterium tuberculosis
- assay: Antituberculosis activity against Mycobacterium tuberculosis H37Rv at 128 ug/mL
- Format: functional
The source made the active and inactive calls. The rule behind the calls is not given here.
recorded_endpoint: Activity

Below: 5 compounds and their reported Activity.
compound	Activity
CC(=O)O[C@H]1[C@H]2C3/C=C(/C)[C@H](O)CC[C@]4(C)OC[C@H](C)C(C[C@H]1C)[C@@H]2C4O3 (stereo partly specified)	inactive
C=C1CC2OC3[C@H]4C(C[C@@H](C)[C@@H](OC(C)=O)[C@@H]24)[C@@H](C)CO[C@@]3(C)CC[C@H]1OO (stereo partly specified)	inactive
CCCC(=O)O[C@]1(C)CCC2[C@@H]3C4OC(C[C@](C)(O)[C@H](O)CC[C@]4(C)OC(=O)[C@@H]2C)[C@@H]31 (stereo partly specified) [BRIARELLIN Q]	43%
CC(=O)O[C@H]1[C@H]2C3CC(=O)CCC[C@]4(C)OC[C@H](C)C(C[C@H]1C)[C@@H]2C4O3 (stereo partly specified) [NOR-ASBESTININ A]	inactive
C=C1CC2OC3[C@H]4C(C[C@@H](C)[C@@H](OC(C)=O)[C@@H]24)[C@@H](C)CO[C@@]3(C)CCC1=O (stereo partly specified)	inactive

Continue with the next compound.
## Task Recorded Activity of C=C1CC2OC3[C@H]4C(C[C@@H](C)[C@@H](OC(C)=O)[C@@H]24)[C@@H](C)CO[C@@]3(C)CC[C@H]1O (stereo partly specified) , please.
## Result inactive

====

- Test system: Plasmodium falciparum
- assay: Antiplasmodial activity against chloroquine-resistant Plasmodium falciparum W2
- Type: functional, organism-based
recorded_endpoint: IC50 (µg/mL)
# output: bare number, implied unit µg/mL

compound	experimental_system	measured_result
C=C1CC2OC3[C@H]4C(C[C@@H](C)[C@@H](OC(C)=O)[C@@H]24)[C@@H](C)CO[C@@]3(C)CC[C@@H]1O (some centres not stated)	Plasmodium falciparum	17

## Task Could you share which IC50 value was measured for CC(=O)O[C@H]1[C@H]2C3CC(=O)CCC[C@]4(C)OC[C@H](C)C(C[C@H]1C)[C@@H]2C4O3 (some centres not stated) [NOR-ASBESTININ A] ?
## Result 14

## Task What about this compound? CCCC(=O)O[C@]1(C)CCC2[C@@H]3C4OC(C/C(C)=C\CC[C@]4(C)OC(=O)[C@@H]2C)[C@@H]31 (some centres not stated) [BRIARELLIN R]
## Result 15

## Task Param item: CCCC(=O)O[C@]1(C)CCC2[C@@H]3C4OC(C[C@](C)(O)[C@H](O)CC[C@]4(C)OC(=O)[C@@H]2C)[C@@H]31 (some centres not stated) [BRIARELLIN Q]
## Result 3

## Task Do the same for CO[C@@H]1CC[C@]2(C)OC[C@H](C)C3C[C@@H](C)[C@@H](OC(C)=O)[C@H]4C(C[C@H]1C)OC2[C@@H]34 (some centres not stated) please
## Result 16

## Task And then CCCC(=O)O[C@]1(C)CCC2[C@@H]3C(OC(CC(C)=O)[C@@H]31)[C@](C)(CCC(=O)O)OC(=O)[C@@H]2C (some centres not stated) , what is it?
## Result 20

====

- Tested on: Plasmodium falciparum
- assay: Antiplasmodial activity against chloroquine-resistant Plasmodium falciparum W2
- Assay type: functional, organism-based
recorded_endpoint: IC50

Reference set, count: 4
>>> df
                                   compound  measured_result
0  CO[C@@H]1CC[C@]2(C)OC[C@H](C)C3C[C@@H](C)[C@@H](OC(C)=O)[C@H]4C(C[C@@]1(C)O)OC2[C@@H]34 (stereo partly specified)       ≥ 50 µg/mL
1  CC(=O)O[C@H]1[C@H]2C3C[C@](C)(O)C(=O)CC[C@]4(C)OC[C@H](C)C(C[C@H]1C)[C@@H]2C4O3 (stereo partly specified)         18 µg/mL
2  C=C1CC2OC3[C@H]4C(C[C@@H](C)[C@@H](OC(C)=O)[C@@H]24)[C@@H](C)CO[C@@]3(C)CCC1=O (stereo partly specified)          9 µg/mL
3  C=C1CC2OC3[C@H]4C(C[C@@H](C)[C@@H](OC(C)=O)[C@@H]24)[C@@H](C)CO[C@@]3(C)CC[C@H]1OO (stereo partly specified)         13 µg/mL

## Task Quick one: IC50 of C=C1CC2OC3[C@H]4C(C[C@@H](C)[C@@H](OC(C)=O)[C@@H]24)[C@@H](C)CO[C@@]3(C)CC[C@H]1O (stereo partly specified) ?
## Result 13 µg/mL

## Task Again, but for CC(=O)O[C@H]1[C@H]2C3/C=C(/C)[C@H](O)CC[C@]4(C)OC[C@H](C)C(C[C@H]1C)[C@@H]2C4O3 (stereo partly specified)
## Result 18 µg/mL
